assay: Induction of IL12p40 secretion in human CD161+ CD3+ NKT cells at 10 ug/ml after 18 hrs relative to basal level; type: functional
property_label: Activity

1. CCCCCCCCCCCCCC[C@@H](O)[C@@H](O)[C@H](CO[C@H]1O[C@H](CO)[C@H](O)[C@H](O)[C@H]1O)NC(=O)CCCCCCCc1ccccc1 = 2.3
2. CCCCCCCCCCCCCCCCCCCCCCCCCC(=O)N[C@@H](CO[C@H]1O[C@H](CO)[C@H](O)[C@H](O)[C@H]1O)[C@H](O)[C@H](O)CCCCc1ccccc1 = 1.8
3. CCCCCCCCCCCCCC[C@@H](O)[C@@H](O)[C@H](CO[C@H]1O[C@H](CO)[C@H](O)[C@H](O)[C@H]1O)NC(=O)CCc1ccc(CC(C)C)cc1 = 1.8
4. CCCCCCCCCCCCCCCCCCCCCCCCCC(=O)N[C@@H](CO[C@H]1O[C@H](CO)[C@H](O)[C@H](OS(=O)(=O)[O-])[C@H]1O)[C@H](O)[C@H](O)CCCCCCCCCCCCCC.[Na+] = 2
5. CCCCCCCCCCCCCCCCCCCCCCCCCC(=O)N[C@@H](CO[C@@H]1O[C@H](CO)[C@H](O)[C@H](OS(=O)(=O)[O-])[C@H]1O)[C@H](O)[C@H](O)CCCCCCCCCCCCCC.[Na+] = 1.8
6. CCCCCCCCCCCCCCC[C@@H](O)[C@H](CO[C@H]1O[C@H](C(=O)O)[C@H](O)[C@H](O)[C@H]1O)NC(=O)CCCCCCCCCCCCC = 1.9
7. CCCCCCCCCCCCCCCCCCCCCCCCCC(=O)N[C@@H](CO[C@H]1O[C@H](C(=O)O)[C@H](O)[C@H](O)[C@H]1O)[C@H](O)[C@H](O)CCCCCCCCCCCCCC = 1.8
8. CCCCCCCCCCCCCCCCCCCCCCCCCC(=O)N[C@@H](CO[C@H]1O[C@H](CO)[C@H](O)[C@H](O)[C@H]1O)[C@H](O)[C@H](O)CCCCC = 1.4

---

The compounds listed here are annotated with their Activity.
system: Mus musculus; experiment: Induction of IL12p40 secretion in BALB/c mouse serum at 2 ug, iv after 18 hrs relative to control; type: functional
property_label: Activity

1) CCCCCCCCCCCCCC[C@@H](O)[C@@H](O)[C@H](CO[C@H]1O[C@H](CO)[C@H](O)[C@H](O)[C@H]1O)NC(=O)CCCCCCCCCCc1ccccc1 = 2.4
2) CCCCCCCCCCCCCC[C@@H](O)[C@@H](O)[C@H](CO[C@H]1O[C@H](CO)[C@H](O)[C@H](O)[C@H]1O)NC(=O)CCCCCCCc1ccccc1 = 3.8
3) CCCCCCCCCCCCCCCCCCCCCCCCCC(=O)N[C@@H](CO[C@H]1O[C@H](C(=O)O)[C@H](O)[C@H](O)[C@H]1O)[C@H](O)[C@H](O)CCCCCCCCCCCCCC = 4.4

---

test: Induction of IL10 secretion in human CD161+ CD3+ NKT cells at 10 ug/ml after 18 hrs relative to basal level; format: functional
property_label: Activity

1) CCCCCCCCCCCCCCCCCCCCCCCCCC(=O)N[C@@H](CO[C@H]1O[C@H](CO)[C@H](O)[C@H](O)[C@H]1O)[C@H](O)[C@H](O)CCc1ccccc1 = 1.2
2) CCCCCCCCCCCCCC[C@@H](O)[C@@H](O)[C@H](CO[C@H]1O[C@H](CO)[C@H](O)[C@H](O)[C@H]1O)NC(=O)CCCc1ccccc1 = 1.3
3) CCCCCCCCCCCCCC[C@@H](O)[C@@H](O)[C@H](CO[C@H]1O[C@H](CO)[C@H](O)[C@H](O)[C@H]1O)NC(=O)CCCCCCCCCc1ccccc1 = 1.4
4) CCCCCCCCCCCCCCC[C@@H](O)[C@H](CO[C@H]1O[C@H](C(=O)O)[C@H](O)[C@H](O)[C@H]1O)NC(=O)CCCCCCCCCCCCC = 1.7
5) CCCCCCCCCCCCCCCCCCCCCCCCCC(=O)N[C@@H](CO[C@@H]1O[C@H](CO)[C@H](O)[C@H](OS(=O)(=O)[O-])[C@H]1O)[C@H](O)[C@H](O)CCCCCCCCCCCCCC.[Na+] = 1.8
6) CCCCCCCCCCCCCC[C@@H](O)[C@@H](O)[C@H](CO[C@H]1O[C@H](CO)[C@H](O)[C@H](O)[C@H]1O)NC(=O)CCCCCCCc1ccccc1 = 2.3
7) CCCCCCCCCCCCCC[C@@H](O)[C@@H](O)[C@H](CO[C@H]1O[C@H](CO)[C@H](O)[C@H](O)[C@H]1O)NC(=O)CCCCCCCCCCCCC = 1.9
